Value source: patent US10745731B2

Tested on: HDAC
assay.remarks: in situ HDAC activity fluorimetric assay in HEK293F cells
Type: cell-based, human
cond: yes/no; summary table
test.readout: HDAC inhibition

| molecule | experimental.system | test.readout | result |
| --- | --- | --- | --- |
| Cl.Cn1cc(CNCC2CCN(c3ncc(C(=O)NO)cn3)CC2)c2ccccc21 [Quisinostat] | HDAC | HDAC inhibition | yes |
| CCCC(CCC)C(=O)O [valproic acid, 2-propylpentanoic acid] | HDAC | HDAC inhibition | yes |
| CCC(C)C(CC)C(N)=O (centres unmarked) [valnoctamide] | HDAC | HDAC inhibition | no |
| CC/C=C(\C)C(=O)O [2M2P, trans-2-methyl 2-pentenoic acid] | HDAC | HDAC inhibition | no |

// next entry
Q: // lookup HDAC inhibition for Cc1ccc(NC(=O)CCCCCC(=O)Nc2ccccc2N)cc1 [pimelic diphenylamide 106]
A: yes
